- Tested on: HepG2
- Protocol summary: Antiangiogenic activity against human HepG2 cells assessed as reduction in area of wound coverage at 12.5 ug/mL incubated for 72 hrs by scratch wound healing assay relative to control
- Type: functional
- Set-up: scale not given: the % may be the effect or the level left
- Settings: dose 12.5 µg/ml
// reported Activity for each item listed
Lab note: write values as number then unit, every time.

O=c1c(C(NCc2cccc(C(F)(F)F)c2)c2ccccc2)csc2ccccc12 (centres undefined)    28.93%
O=c1c(C(NCc2ccc(Cl)cc2)c2ccccc2)csc2ccccc12 (centres undefined)    25.83%
O=c1c(C(NCc2ccc(OC(F)(F)F)cc2)c2ccccc2)csc2ccccc12 (centres undefined)    31.19%

Turning now to a further compound:
Problem: Any idea what its Activity is? The compound is O=c1c(C(NCc2ccccc2)c2ccccc2)csc2ccc(Cl)cc12 (centres undefined)
Result: 18.24%
